system: mice; experiment: Protection vs. pentylenetetrazol clonic convulsions; format: in vivo; settings: Mus musculus; Table I; 316 mg/kg test compound, oral in sesame oil; pentylenetetrazol 80 mg/kg s.c.; n.p. = no protection observed; read-out: Protection vs. Pentylenetetrazol (numbers of mice protected from clonic convulsion/number tested) (converted)
value_type: responders at 316 mg/kg (%)
Form entry: value (%) — number only.

Sample records with responders at 316 mg/kg:
- molecule: "CO[Si](C)(OC)c1ccccc1"
  target_or_system: "mice"
  u: "%"
  responders at 316 mg/kg: 33.3
- molecule: "C[Si](O)(c1ccccc1)c1ccccc1"
  target_or_system: "mice"
  u: "%"
  responders at 316 mg/kg: 50
- molecule: "C[Si](C)(O)c1ccccc1 [drawing 8; R1=CH3; R2=CH3; X=OH]"
  target_or_system: "mice"
  u: "%"
  responders at 316 mg/kg: 33.3
- molecule: "CCO[Si](CC)(OCC)c1ccccc1 [drawing 10; R1=C2 H5; X=OC2 H5]"
  target_or_system: "mice"
  u: "%"
  responders at 316 mg/kg: 66.7
- molecule: "C[Si](O)(O)c1ccccc1 [drawing 10; R1=CH3; X=OH, phenylmethylsilanediol]"
  target_or_system: "mice"
  u: "%"
  responders at 316 mg/kg: 33.3

What measured responders at 316 mg/kg goes with CCO[Si](C)(C)c1ccccc1 [drawing 8; R1=CH3; R2=CH3; X=OC2 H5] ?
33.3

Using the record for C=C[Si](OCC)(OCC)c1ccccc1 [drawing 10; R1=CHCH2; X=OC2 H5] , report its responders at 316 mg/kg.
16.7

Please give the measured responders at 316 mg/kg for this molecule: CC[Si](O)(O)c1ccccc1 [drawing 10; R1=C2 H5; X=OH]
100

Which measured responders at 316 mg/kg value corresponds to CC(C)O[Si](C)(OC(C)C)c1ccccc1 [drawing 10; R1=CH3; X=OCH(CH3)2] ?
33.3
